FYI, the data here is from patent US20200123233A1.

# TGT: Rabies virus glycoprotein G, ERA strain (attenuated vaccine strain, ATCC VR332) (Rabies virus, ERA strain (genotype 1 lyssavirus)) (UniProt P03524)
# Sequence (P03524 20-524 limits assumed): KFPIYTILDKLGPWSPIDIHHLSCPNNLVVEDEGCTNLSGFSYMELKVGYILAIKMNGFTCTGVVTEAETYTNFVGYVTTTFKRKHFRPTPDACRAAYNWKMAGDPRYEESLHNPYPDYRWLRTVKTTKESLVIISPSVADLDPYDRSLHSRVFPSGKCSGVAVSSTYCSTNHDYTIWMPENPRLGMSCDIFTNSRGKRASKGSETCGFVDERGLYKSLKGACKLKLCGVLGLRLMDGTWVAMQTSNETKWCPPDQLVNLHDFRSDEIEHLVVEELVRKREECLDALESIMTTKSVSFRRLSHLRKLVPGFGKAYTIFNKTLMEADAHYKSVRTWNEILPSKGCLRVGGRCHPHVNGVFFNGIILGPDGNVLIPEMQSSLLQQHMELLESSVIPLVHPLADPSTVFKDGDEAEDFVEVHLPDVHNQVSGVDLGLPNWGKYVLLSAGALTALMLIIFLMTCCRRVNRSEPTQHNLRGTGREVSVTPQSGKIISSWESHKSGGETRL
# TEST NAME: cell-based or functional assay
Overview of reported ERA neutralizing antibody titer (RFFIT): EU/ml across a group of binders:
REPORTED METRIC: ERA neutralizing antibody titer (RFFIT): EU/ml

[[record]]
binder = "LG214A8 (VHH) VHH: EVQLVKSGGGSVQAGGSLRLSCAASGGTFNPYVMAWFRQAPGNEREFVARIRWSGGDAYYDDSVKGRFAITRDAAKNTVHLQMNSLKPEDTAVYYCAAATYGYGSYTYGGSYDLWGQGTQVTVSS"
test_result = "< 0.5 EU/ml"

[[record]]
binder = "LG212G2 (VHH) VHH: EVQLVESGGGLVQPGGSLRLSCAASGFTFGSHDMSWVRQAPGKGSEWVSGIKSGGGSTLYADSVKGRFAISRDNAKNTLYLQMNSLKPEDTAVYYCATDLYGSTWYPGEDRGTQVTVSS"
test_result = "< 0.5 EU/ml"

[[record]]
binder = "LG213D7 (VHH) VHH: EVQLVESGGGLVQAGGSLRLSCTVSGDTFDNSAAGWYRATSETQRELVARIRSSGSTNYADSVKGRFTVSRDNAKNTVYLQMNSLKPEDTAVYYCNVVSYGEYFWGKGTLVTVSS"
test_result = "5.97 EU/ml"

